src = PubChem BioAssay AID1159580

- protocol notes: chemical genetic growth profiling, strain panel (AID 1159580);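 note: tested at 20 µM; growth read once vehicle control cultures reached saturation at 30 °C; 1 = growth at the plate median or of vehicle wells; lower values mean less growth of the strain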
- conditions used: S. cerevisiae deletion strains, growth OD, locus YLR370C, strain arc18, hits give low values
Among all 5,500 compounds or so, about 2,000 (36%) were called active. Inconclusive results (about 18%) are left out. Some of the results follow.

[
  {
    "compound": "OCc1ccccc1O[C@@H]1O[C@H](CO)[C@@H](O)[C@H](O)[C@H]1O",
    "normalized growth": 0.98
  },
  {
    "compound": "CC[C@@H](CO)NCCN[C@@H](CC)CO",
    "normalized growth": 1.02
  },
  {
    "compound": "COc1cc(O)c(C(=O)c2ccccc2)cc1O",
    "normalized growth": 1
  },
  {
    "compound": "CN=C(NC#N)NCCSCc1nc[nH]c1C",
    "normalized growth": 1.01
  },
  {
    "compound": "O=[N+]([O-])O[C@H]1CO[C@H]2[C@@H]1OC[C@H]2O[N+](=O)[O-]",
    "normalized growth": 0.992
  },
  {
    "compound": "NC/C=C/C(=O)O",
    "normalized growth": 1.01
  },
  {
    "compound": "COc1cccc([C@]2(O)CCCC[C@H]2CN(C)C)c1",
    "normalized growth": 0.974
  },
  {
    "compound": "O=c1ccc2ccccc2o1",
    "normalized growth": 1
  },
  {
    "compound": "CCSC(=N)N",
    "normalized growth": 1.02
  },
  {
    "compound": "CC(=O)O[C@H]1C(=O)[C@@]2(C)C([C@H](OC(=O)c3ccccc3)[C@]3(O)C[C@H](OC(=O)[C@H](O)[C@@H](NC(=O)c4ccccc4)c4ccccc4)C(C)=C1C3(C)C)[C@]1(OC(C)=O)CO[C@@H]1C[C@@H]2O (some centres undefined)",
    "normalized growth": 1.02
  },
  {
    "compound": "COc1ccc2cc1Oc1ccc(cc1)C[C@H]1c3c(cc4c(c3Oc3cc5c(cc3OC)CCN(C)[C@@H]5C2)OCO4)CCN1C",
    "normalized growth": 0.999
  },
  {
    "compound": "C=CC1=C(C(=O)O)N2C(=O)[C@@H](NC(=O)/C(=N/O)c3csc(N)n3)[C@H]2SC1",
    "normalized growth": 1.02
  },
  {
    "compound": "O=C(O)c1cc(=O)c2ccc(Cl)cc2[nH]1",
    "normalized growth": 1.02
  },
  {
    "compound": "CC1(C)S[C@@H]2[C@H](NC(=O)[C@H](NC(=O)N3CCNC3=O)c3ccccc3)C(=O)N2C1C(=O)O (some centres undefined)",
    "normalized growth": 0.98
  }
]

---

- protocol notes: chemical genetic growth profiling, strain panel (AID 1159580);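 note: tested at 20 µM; growth read once vehicle control cultures reached saturation at 30 °C; 1 = growth at the plate median or of vehicle wells; lower values mean less growth of the strain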
- conditions used: S. cerevisiae deletion strains, growth OD, locus YOR106W, strain vam3, hits give low values
Among all 5,500 compounds or so, about 2,000 (36%) were called active. Not shown: some 18% with an inconclusive outcome. The list shows a part of the results.
The entries below come with measured normalized growth values attached.

[
  {
    "smiles text": "COc1cc(O)c(C(=O)c2ccccc2)cc1O",
    "normalized growth": 0.917
  },
  {
    "smiles text": "COc1ccc(C(=O)c2ccccc2)c(O)c1",
    "normalized growth": 0.682
  },
  {
    "smiles text": "COc1ccc(C(=O)c2ccccc2O)c(O)c1",
    "normalized growth": 0.866
  }
]

---

- protocol notes: chemical genetic growth profiling, strain panel (AID 1159580);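 note: tested at 20 µM; growth read once vehicle control cultures reached saturation at 30 °C; 1 = growth at the plate median or of vehicle wells; lower values mean less growth of the strain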
- conditions used: S. cerevisiae deletion strains, growth OD, locus YEL037C, strain rad23, hits give low values
Screen size: about 5,500 compounds; about 2,000 (36%) were called active. Roughly 18% stayed inconclusive and do not appear here. Some of the results follow.

[
  {
    "molecule": "CCCCCCCC/C=C/CCCCCCCCOP(=O)([O-])OCC[N+](C)(C)C",
    "normalized growth": 0.0533
  },
  {
    "molecule": "CC(=O)O[C@H]1C(=O)[C@@]2(C)C([C@H](OC(=O)c3ccccc3)[C@]3(O)C[C@H](O)C(C)=C1C3(C)C)[C@]1(OC(C)=O)CO[C@@H]1C[C@@H]2O (stereo partly drawn)",
    "normalized growth": 0.983
  },
  {
    "molecule": "COc1ccc2c(c1)[C@@]1(C)CCC(=O)C[C@H]1CC2",
    "normalized growth": 0.97
  }
]

---

- protocol notes: chemical genetic growth profiling, strain panel (AID 1159580);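 note: tested at 20 µM; growth read once vehicle control cultures reached saturation at 30 °C; 1 = growth at the plate median or of vehicle wells; lower values mean less growth of the strain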
- conditions used: S. cerevisiae deletion strains, growth OD, locus YMR129W
About 2,000 (36%) of roughly 5,500 compounds were called active. About 18% were inconclusive and are not listed. Rule as the data show it: active = normalized growth mostly below about 0.91 (no sharp cut-off); inconclusive = no clear call, values can overlap the other calls; inactive = mostly above about 0.92. Some of the results follow.
Labels: active, inactive

[
  {
    "compound": "CCc1nc(N)nc(N)c1-c1ccc(Cl)cc1",
    "label value": "inactive"
  },
  {
    "compound": "CC(=O)OC1CC23CC24CCC(OC2OCC(O)C(O)C2O)C(C)(C)C4CCC3C2(C)CC3OC4(CC(C)C3C12C)OC(O)C1(C)OC41 (stereo not drawn)",
    "label value": "inactive"
  },
  {
    "compound": "N#Cc1c(Cl)c(Cl)c(Cl)c(C#N)c1Cl",
    "label value": "active"
  },
  {
    "compound": "COc1ccc2c(c1)C1(C)CCC(=O)CC1CC2 (stereo not drawn)",
    "label value": "inactive"
  },
  {
    "compound": "NCC1CCCCC1CC(=O)O (stereo not drawn)",
    "label value": "inactive"
  },
  {
    "compound": "C[N+](C)(C)CCOP(=O)([O-])OP(=O)(O)OC[C@H]1OC(n2ccc(N)nc2=O)[C@H](O)[C@@H]1O (stereo partly drawn)",
    "label value": "inactive"
  },
  {
    "compound": "COc1ccc(-c2coc3c(O)c(OC)ccc3c2=O)cc1",
    "label value": "inactive"
  },
  {
    "compound": "O=C(/C=C/C=C/c1ccc2c(c1)OCO2)N1CCCCC1",
    "label value": "inactive"
  },
  {
    "compound": "O=C(O)c1cc(=O)c2ccc(Cl)cc2[nH]1",
    "label value": "inactive"
  },
  {
    "compound": "C=CC1=C(C(=O)O)N2C(=O)[C@@H](NC(=O)/C(=N/O)c3csc(N)n3)[C@H]2SC1",
    "label value": "inactive"
  },
  {
    "compound": "c1ccc(CC2=NCCN2)cc1",
    "label value": "inactive"
  },
  {
    "compound": "COC(=O)[C@@H]1C(O)CC[C@H]2CN3CCc4c([nH]c5ccccc45)[C@@H]3C[C@@H]21 (stereo partly drawn)",
    "label value": "inactive"
  },
  {
    "compound": "O=C1CC(c2ccc(O)c(O)c2)Oc2cc(O)cc(O)c21 (stereo not drawn)",
    "label value": "inactive"
  },
  {
    "compound": "COc1ccc2c(c1)[C@@]1(C)CCC(=O)C[C@H]1CC2",
    "label value": "inactive"
  },
  {
    "compound": "O=c1ccc2cc(O)c(O)cc2o1",
    "label value": "inactive"
  },
  {
    "compound": "O=C1C[C@@H](c2ccc(O)cc2)Oc2cc(O)cc(O)c21",
    "label value": "inactive"
  },
  {
    "compound": "COc1cccc([C@]2(O)CCCC[C@H]2CN(C)C)c1",
    "label value": "inactive"
  },
  {
    "compound": "COc1ccc([C@@H]2CC(=O)c3c(O)cc(O)cc3O2)cc1O",
    "label value": "inactive"
  },
  {
    "compound": "Cc1ccc2c(c1)CC[C@H]1CC(=O)CC[C@]21C",
    "label value": "inactive"
  },
  {
    "compound": "c1ccc(CN(CC2=NCCN2)c2ccccc2)cc1",
    "label value": "inactive"
  },
  {
    "compound": "CNC1(C)C2CCC(C2)C1(C)C (stereo not drawn)",
    "label value": "inactive"
  },
  {
    "compound": "CCCCCC(C)N (stereo not drawn)",
    "label value": "inactive"
  },
  {
    "compound": "COC(=O)C1=COC(OC2OC(CO)C(O)C(O)C2O)C2C(C)CC(=O)C12O (stereo not drawn)",
    "label value": "inactive"
  },
  {
    "compound": "C[N+](C)(C)CC(=O)[O-]",
    "label value": "inactive"
  },
  {
    "compound": "CC(=O)O[C@@](C)(CCC=C(C)C)C1CC=C(C)CC1 (stereo partly drawn)",
    "label value": "inactive"
  },
  {
    "compound": "NC(N)=Nc1nc(CSCCC(N)=NS(N)(=O)=O)cs1",
    "label value": "inactive"
  },
  {
    "compound": "O=c1ccc2ccccc2o1",
    "label value": "inactive"
  },
  {
    "compound": "COc1cc(O)c2c(=O)cc(C)oc2c1CC=C(C)C",
    "label value": "inactive"
  }
]
